Assay: qHTS assay to identify small molecule antagonists of the peroxisome proliferator-activated receptor gamma (PPARg) signaling pathway - cell viability counter screen (AID 743194); further: nearly all actives have a fitted effect of over 55% in size
Conditions: PPARg-bla HEK293H viability, CellTiter-Glo luminescence, 17 h, co-treated with 50 nM rosiglitazone; series mostly up to 62.6 µM
Inconclusive results are not listed. Calls of active or inactive are those of the source. The call rests on the fitted dose curve; in most records, active means well fitted cell-killing curve with a large enough effect in the repeat runs; inconclusive means weak or mixed curves, or effect the other way; inactive means no such curve, though single readings can be large or run the other way.
Pick one: true for active, false for inactive

Check the results log: what was the call for "CN(Cc1cc(Br)cc(Br)c1N)C1CCCCC1" ?
false

Check the results log: what was the call for "CCCCCCOc1cc(C)c(O)c(C)c1C" ?
false

Check the results log: what was the call for "CCCOc1sc(C(=O)N2CCC(c3cc(CN)ccc3F)CC2)c(C)c1Br" ?
true

Check the results log: what was the call for C1CC(COCC2CO2)CCC1COCC1CO1 (centres undefined) ?
false

Check the results log: what was the call for "O=Cc1ccc(F)cc1" ?
false

Check the results log: what was the call for "c1ccc(Sc2ccccc2)cc1" ?
false

Check the results log: what was the call for "C/C=C/C(=O)Oc1c(CCCCCC(C)C)cc([N+](=O)[O-])cc1[N+](=O)[O-]" ?
true

Check the results log: what was the call for "C=CC(=C)CCC=C(C)C" ?
false

Check the results log: what was the call for "C(=C/c1ccccc1)/c1ccccc1" ?
false

Check the results log: what was the call for "C=C(c1ccc(C(=O)O)cc1)c1cc2c(cc1C)C(C)(C)CCC2(C)C" ?
true

Check the results log: what was the call for "O=S(=O)(O)CCCN1CCOCC1" ?
false

Check the results log: what was the call for CN1[C@@H]2CC[C@H]1CC(OC(=O)C(CO)c1ccccc1)C2 (some centres undefined) ?
false

Check the results log: what was the call for "NC1(c2ccc(-c3nc4ccn5c(=O)[nH]nc5c4cc3-c3ccccc3)cc2)CCC1" ?
true

Check the results log: what was the call for "Cc1cc(Nc2ccc(O)cc2)ccc1N" ?
true

Check the results log: what was the call for "O=C(Nc1ccc(Cl)c(Cl)c1)c1cc(Cl)cc(Cl)c1O" ?
true

Check the results log: what was the call for "CO[C@H]1C=CO[C@@]2(C)Oc3c(C)c(O)c4c(O)c(cc(O)c4c3C2=O)NC(=O)/C(C)=C\C=C/[C@H](C)[C@H](O)[C@@H](C)[C@@H](O)[C@@H](C)[C@H](OC(C)=O)[C@@H]1C" ?
false

Check the results log: what was the call for "Cc1c(C)n(Cc2ccccc2)c2ccc(C(=O)OCCN(C)C)cc12" ?
false

Check the results log: what was the call for "CC(=O)Nc1ccc(O)cc1" ?
false

Check the results log: what was the call for "SCCCCCCCCS" ?
false

Check the results log: what was the call for "CC(C)(C)c1cc(/C=C2\SC(=N)NC2=O)cc(C(C)(C)C)c1O" ?
true

Check the results log: what was the call for "CCO[Si](CCCSSSSCCC[Si](OCC)(OCC)OCC)(OCC)OCC" ?
false

Check the results log: what was the call for "Nc1ncnc2c1ncn2[C@@H]1O[C@H](COP(=O)(O)O)[C@@H](O)[C@H]1O" ?
false

Check the results log: what was the call for "O=C(O)Cc1ccc(OCCNC[C@H](O)c2ccccc2)cc1" ?
false

Check the results log: what was the call for "COC(=O)NCCC[Si](OC)(OC)OC" ?
false

###

Molecular target: Estrogen receptor (Homo sapiens)
Assay: qHTS assay to identify small molecule agonists of the estrogen receptor alpha (ER-alpha) signaling pathway using the BG1 cell line (AID 743079); further: nearly all actives have a fitted effect of over 20% in size
Details: BG1Luc4E2 cells, ERE-luciferase agonist, 22 h
Records with an inconclusive call do not appear. Calls of active or inactive are those of the source. The call rests on the fitted dose curve; in most records, active means well fitted activation curve with a large enough effect in the repeat runs; inconclusive means weak or mixed curves, or effect the other way; inactive means no such curve, though single readings can be large or run the other way.
Pick one: True (active), False (inactive)

Check the results log: what was the call for "CCc1ccc(O)c(C(C)(C)C)c1" ?
True

Check the results log: what was the call for COC(=O)CC(C)CCC=C(C)C (stereo not drawn) ?
False

Check the results log: what was the call for "CO[C@H]1C=CO[C@@]2(C)Oc3c(C)c(O)c4c(O)c(cc(O)c4c3C2=O)NC(=O)/C(C)=C\C=C/[C@H](C)[C@H](O)[C@@H](C)[C@@H](O)[C@@H](C)[C@H](OC(C)=O)[C@@H]1C" ?
False

Check the results log: what was the call for "CCN(CC)CCOC(=O)C1(C2CCCCC2)CCCCC1" ?
False

Check the results log: what was the call for "CC(C)(C)CC(C)(C)c1ccccc1O" ?
True

Check the results log: what was the call for "COc1cc(C(C)C)c2c(c1)S(=O)(=O)N(COc1cc(=O)n3cccc(OCCN4CCCCC4)c3n1)C2=O" ?
False

Check the results log: what was the call for "CCCCCCCCCCCCCOP(=O)(O)O" ?
False

Check the results log: what was the call for "NC1(c2ccc(-c3nc4ccn5c(=O)[nH]nc5c4cc3-c3ccccc3)cc2)CCC1" ?
False

Check the results log: what was the call for "CCN(CC)CCSC(=O)C(c1ccccc1)c1ccccc1" ?
False

Check the results log: what was the call for "CCC(C)(C)c1cc(O)c(C(C)(C)CC)cc1O" ?
False

Check the results log: what was the call for C=CC(=O)OCC(O)COc1ccccc1 (stereo not drawn) ?
False

Check the results log: what was the call for "C[C@@H]1CC[C@H]2C(C)(C)[C@H]3C[C@@]12CC[C@@]3(C)O" ?
False

Check the results log: what was the call for "CC(C)N=C(N)/N=C(\N)Nc1ccc(Cl)cc1" ?
False

Check the results log: what was the call for "CC(C)c1ccc(O)c(C(C)C)c1" ?
False

Check the results log: what was the call for "Cc1ccc(N)cc1O" ?
False

Check the results log: what was the call for "COc1cc(C(=O)NS(=O)(=O)c2ccccc2C)ccc1Cc1cn(C)c2ccc(NC(=O)OC3CCCC3)cc12" ?
False

Check the results log: what was the call for "Cc1ccc2ccc3cccc4ccc1c2c34" ?
False

Check the results log: what was the call for CC(O)C#CC(C)O (stereo not drawn) ?
False

Check the results log: what was the call for "CCCCCCCC/C=C\CCCCCCCC(=O)OCCOC(=O)CCCCCCC/C=C\CCCCCCCC" ?
True

Check the results log: what was the call for "O=C(O)Cc1ccc(OCCNC[C@H](O)c2ccccc2)cc1" ?
False

Check the results log: what was the call for "O=S(=O)(O)CCCN1CCOCC1" ?
False

Check the results log: what was the call for "NC(=O)C(=O)N/N=C/c1ccc([N+](=O)[O-])o1" ?
False

Check the results log: what was the call for CC1CCCNC1 (stereo not drawn) ?
False

Check the results log: what was the call for "CCCCCCOc1cc(C)c(O)c(C)c1C" ?
False

Check the results log: what was the call for COc1cccc(CCc2ccccc2OCC(CN(C)C)OC(=O)CCC(=O)O)c1 (stereo not drawn) ?
False

Check the results log: what was the call for "CCCCCCCC/C=C\CCCCCCCC(=O)N(C)CC(=O)O" ?
False

Check the results log: what was the call for "CCCCCCCC/C=C/CCCOC(C)=O" ?
False

Check the results log: what was the call for "CCCCCCOc1ccc(O)cc1" ?
True

Check the results log: what was the call for "Cn1cnc2ncnc(N)c21" ?
False

Check the results log: what was the call for "CC(C)(C)C1=CC(=O)C=C(C(C)(C)C)C1=O" ?
False

Check the results log: what was the call for "C[Si](C)(C)Cl" ?
False

Check the results log: what was the call for "NCCCCCCNCCCCCCN" ?
False

Check the results log: what was the call for "CCCCOc1ccc(C(=O)CCN2CCCCC2)cc1" ?
True

Check the results log: what was the call for C1CC(COCC2CO2)CCC1COCC1CO1 (stereo not drawn) ?
False

Check the results log: what was the call for Clc1ccc(C(Cn2ccnc2)OCc2c(Cl)cccc2Cl)c(Cl)c1 (stereo not drawn) ?
False

Check the results log: what was the call for "CCC(=O)OCCc1ccccc1" ?
False

Check the results log: what was the call for CC(CN(C)C)CN1c2ccccc2CCc2ccccc21 (stereo not drawn) ?
False

Check the results log: what was the call for C=CC(C)(CCC=C(C)C)OC(=O)/C=C/c1ccccc1 (stereo not drawn) ?
True

Check the results log: what was the call for CCCCN(CCCC)CCC(O)c1cc2c(Cl)cc(Cl)cc2c2cc(C(F)(F)F)ccc12 (stereo not drawn) ?
False

Check the results log: what was the call for "CCc1cccc(C)c1" ?
False

Check the results log: what was the call for "c1ccc(Sc2ccccc2)cc1" ?
False

Check the results log: what was the call for "N#CSCSc1nc2ccccc2s1" ?
False

Check the results log: what was the call for "CCCCNc1c(C(=O)OCC)c(C)nc2c1cnn2CC" ?
False
